From: patent US20190153103A1

Recorded ELISA by entry
system: T1, hBMPR1B-Fc (human BMPR1B extracellular domain, residues K14 to R126, fused to human IgG2 Fc) (human, UniProt O00238 14-126); further: unit not given here
T1 construct: also called BMPR1B fused to human Fc fragment; not shown: human IgG2 Fc protein
T1 sequence: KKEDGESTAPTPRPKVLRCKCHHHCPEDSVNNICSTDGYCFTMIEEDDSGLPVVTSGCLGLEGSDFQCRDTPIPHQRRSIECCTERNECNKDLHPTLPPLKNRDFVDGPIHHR
experimentalProtocol: ELISA
experimentalReadout: ELISA

binder: SC91.27 (murine anti-BMPR1B antibody) (antibody, V domains shown, Murine hybridoma antibody with the same VL as SC91.20) VH: QVQLQQPGAEVVKPGASVKLSCKASGYTFTNYWMQWVKQRPGQGLEWIGEIDPSDRYTMYNQKFKGKATLIVDTSSSTAYMQLSSLTSEDSAVYFCARFGYYVDYWGQGTTLTVSS VL: DVVMTQTPLSLPVSLGDQASISCRSSQSLVHSTGNTYLHWYLQKPGQSPNLLIYKVSNRFSGVPDRFSGSGSGTDFTLKISRVEAEDLGVYFCSQSTHVPFTFGSGTKLEIK
experimentalReadout: ELISA
val: 0.417

binder: SC91.20 (antibody, V domains shown) VH: QVQLQQPGAEVVRPGASLKLSCKASGYTFTSYWMQWIKQRPGQGLEWIGEIDPSDNYTMYNQKFKGKATLTVDTSSSTAYMQLSSLTSEDSAVYFCARFGFYVDYWGQGTTLTVSS VL: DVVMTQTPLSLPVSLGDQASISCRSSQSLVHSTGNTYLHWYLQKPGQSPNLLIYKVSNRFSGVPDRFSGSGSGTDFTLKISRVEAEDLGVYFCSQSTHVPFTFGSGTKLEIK
experimentalReadout: ELISA
val: 0.462
